- Test system: L1210 leukemia ip in BDF1 mice, survival T/C
- PROTOCOL_DESCRIPTION: NCI In Vivo Anticancer Drug Screen. Data for tumor model L1210 Leukemia (intraperitoneal) in B6D2F1 (BDF1) mice
- SETTINGS: endpoint: mean survival time; dose: 200.0 mg/kg/injection; schedule: Q01DX009 (ip); vehicle: Klucel (hydroxypropylcellulose) (HPC); higher = longer survival
Inconclusive results and toxic doses are left out.
QUANTITY: T/C

INPUT: Which T/C is listed for O=[N+]([O-])c1ccc(C(O)CC(O)(C(F)(F)F)C(F)(F)F)cc1 (stereo not drawn) ?
OUTPUT: 94 % of control

INPUT: Continue with O=C(COc1ccc(Cl)cc1)NCCc1ccccc1
OUTPUT: 92 % of control

INPUT: Continue with Cc1nc(C)c(C)s1
OUTPUT: 95 % of control

INPUT: Continue with O=NN(c1ccccc1)c1ccc(N(N=O)c2ccccc2)cc1
OUTPUT: 100 % of control

INPUT: Continue with O=C(Nc1cccc(F)c1)Nc1cccc([N+](=O)[O-])c1
OUTPUT: 102 % of control

INPUT: Continue with COC(=O)CCNCc1ccccc1
OUTPUT: 99 % of control

INPUT: Continue with CC1(C)CC(=O)CCS1
OUTPUT: 96 % of control

INPUT: Continue with O=[N+]([O-])c1cc(COc2ccc(Cl)c(Cl)c2)ccc1Cl
OUTPUT: 93 % of control

INPUT: Continue with c1ccc(CNCc2ccccc2)cc1
OUTPUT: 100 % of control

INPUT: Continue with CC(=O)c1ccc2c(c1)CCN2
OUTPUT: 91 % of control

INPUT: Continue with Cc1cc(=O)[nH][nH]c1=O
OUTPUT: 101 % of control

INPUT: Continue with CCOC(=O)C(C)NCc1ccccc1 (stereo not drawn)
OUTPUT: 111 % of control

INPUT: Continue with S=C(Nc1cccc2ccccc12)N1CCOCC1
OUTPUT: 120 % of control

INPUT: Continue with C=COC1CCCCC1
OUTPUT: 100 % of control

INPUT: Continue with Nc1c(Br)cc(Br)c(C(=O)O)c1Br
OUTPUT: 95 % of control

INPUT: Continue with COc1ccc2c3c(ccc2c1)NC(C(=O)O)CC3 (stereo not drawn)
OUTPUT: 96 % of control

INPUT: Continue with CC1CC(=O)c2ccccc2N1S(C)(=O)=O (stereo not drawn)
OUTPUT: 95 % of control

INPUT: Continue with CC(=O)Oc1ccc(CC(C(=O)O)c2ccccc2)cc1 (stereo not drawn)
OUTPUT: 109 % of control

INPUT: Continue with Cc1ccc(NC(=O)C(=O)Nc2ccc(C)cc2)cc1
OUTPUT: 89 % of control

INPUT: Continue with CC1(C)C=C(C(Br)c2cccc(Cl)c2)C(=O)c2ccccc21 (stereo not drawn)
OUTPUT: 104 % of control

INPUT: Continue with COc1ccc(-c2cc(C(=O)O)c3cc4ccccc4cc3n2)cc1Br
OUTPUT: 93 % of control

INPUT: Continue with CC(O)c1cccc(NC(=O)NC2CCCCC2)c1 (stereo not drawn)
OUTPUT: 101 % of control

INPUT: Continue with CCN(CC)c1ccc(NC(=S)Nc2cccc(C(F)(F)F)c2)c(C)c1
OUTPUT: 90 % of control

INPUT: Continue with CCOC(=O)c1cnc(SC)nc1Nc1ccccc1C
OUTPUT: 93 % of control

INPUT: Continue with CCOC(=O)COc1ccc(Cl)cc1
OUTPUT: 103 % of control

INPUT: Continue with CCOC(=O)c1cnc2c(ccc3cc(OC)ccc32)c1Cl
OUTPUT: 101 % of control

INPUT: Continue with CCOC(=O)c1c(O)csc1C
OUTPUT: 90 % of control

INPUT: Continue with CCc1ccccc1NC(=O)NCc1ccc(C)c(C)c1
OUTPUT: 94 % of control
